runConditions: human gut metagenome, 24 h, 2 µM; note: call rule not given here
measuredEndpoint: Bacterial Biotransformation

CC(C)(C)NCC(O)COc1cccc2c1CC(O)C(O)C2 (stereo not drawn)	Compound NOT metabolized
CC(=O)Nc1ccc(OC(C)=O)cc1 [DIACETAMATE]	Compound metabolized
CCCN(CCC)CCc1cccc2c1CC(=O)N2	Compound NOT metabolized
CCN(CC)C(=O)C1(c2ccccc2)CC1CN (stereo not drawn)	Compound NOT metabolized
CN(C)CCOC(C)(c1ccccc1)c1ccccn1.O=C(O)CCC(=O)O (stereo not drawn) [DOXYLAMINE SUCCINATE]	Compound NOT metabolized
C=CC[C@@H]1/C=C(\C)C[C@H](C)C[C@H](OC)[C@H]2O[C@@](O)(C(=O)C(=O)N3CCCC[C@H]3C(=O)O[C@H](/C(C)=C/[C@@H]3CC[C@@H](O)[C@H](OC)C3)[C@H](C)[C@@H](O)CC1=O)[C@H](C)C[C@@H]2OC.O	Compound metabolized

Query :: What does the record list as Bacterial Biotransformation for O=C([O-])C[C@H](O)C[C@H](O)/C=C/c1c(C2CC2)nc2ccccc2c1-c1ccc(F)cc1.O=C([O-])C[C@H](O)C[C@H](O)/C=C/c1c(C2CC2)nc2ccccc2c1-c1ccc(F)cc1.[Ca+2] ?
Result :: Compound metabolized

Query :: Param item: CC(NC(C)(C)C)C(=O)c1cccc(Cl)c1 (stereo not drawn)
Result :: Compound NOT metabolized

====

assayProtocol: The drug is tested on Z-009 corresponding to pig gut metagenome with ENA study accession number: PRJEB37062 and ENA sample accession number: ERS12561809 for biotransformation under anaerobic condition. The drug concentrations were measured over 9 timepoints collected between 0 and 24 hours of incubation by liquid-chromatography-coupled mass spectrometry (LC–MS)
runConditions: 2 µM
measuredEndpoint: Bacterial Biotransformation

Solved entries (count: 4):
Nc1nnc(-c2cccc(Cl)c2Cl)c(N)n1 [LAMOTRIGINE]	Compound NOT metabolized
C#C[C@]1(OC(C)=O)CC[C@H]2[C@@H]3CCC4=C/C(=N/O)CC[C@@H]4[C@H]3CC[C@@]21CC [NORGESTIMATE]	Compound NOT metabolized
COc1ccc(/C=C/C(=O)Nc2ccccc2C(=O)O)cc1OC	Compound metabolized
CSc1ccc2c(c1)C(N1CCN(C)CC1)Cc1ccccc1S2.O=C(O)/C=C\C(=O)O (stereo unspecified)	Compound metabolized

Query :: What does the record list as Bacterial Biotransformation for C[N+]12CCC(CC1)C(OC(=O)C(O)(c1ccccc1)c1ccccc1)C2.[Br-] (stereo unspecified) [CLIDINIUM BROMIDE] ?
Result :: Compound metabolized

====

runConditions: human gut metagenome, 24 h, 2 µM
measuredEndpoint: Bacterial Biotransformation

OCCN(CCO)c1nc(N2CCCCC2)c2nc(N(CCO)CCO)nc(N3CCCCC3)c2n1	Compound metabolized
CN(C)C(=O)Oc1cccc([N+](C)(C)C)c1.[Br-] [NEOSTIGMINE BROMIDE]	Compound NOT metabolized
CC1Cc2ccccc2N1NC(=O)c1ccc(Cl)c(S(N)(=O)=O)c1 (stereo not given) [INDAPAMIDE]	Compound NOT metabolized
CCc1cccc2c3c([nH]c12)C(CC)(CC(=O)O)OCC3 (stereo not given)	Compound metabolized

Query :: What does the record list as Bacterial Biotransformation for N#Cc1ccc2c(c1)N(CCCN1CCC(O)CC1)c1ccccc1S2 ?
Result :: Compound metabolized

====

assayProtocol: The drug is tested on Z-026 corresponding to metagenome with ENA study accession number: PRJEB37062 and ENA sample accession number: ERS12561825 for biotransformation under anaerobic condition. The drug concentrations were measured over 9 timepoints collected between 0 and 24 hours of incubation by liquid-chromatography-coupled mass spectrometry (LC–MS)
runConditions: 2 µM
measuredEndpoint: Bacterial Biotransformation

Solved entries (count: 8):
CCN1CCCC1CNC(=O)c1cc(S(=O)(=O)CC)c(N)cc1OC (centres undefined) [AMISULPRIDE]	Compound NOT metabolized
CN1[C@@H]2CC[C@H]1C[C@@H](OC(=O)c1c[nH]c3ccccc13)C2 [TROPISETRON]	Compound NOT metabolized
C=C[C@H]1CN2CC[C@H]1C[C@H]2[C@H](O)c1ccnc2ccc(OC)cc12.C=C[C@H]1CN2CC[C@H]1C[C@H]2[C@H](O)c1ccnc2ccc(OC)cc12.O.O.O=S(=O)(O)O [QUININE SULFATE]	Compound NOT metabolized
CC1=C(CC(=O)O)c2cc(F)ccc2/C1=C\c1ccc([S+](C)[O-])cc1 (centres undefined)	Compound metabolized
COC1=C(OC)C(=O)C(CCCCCCCCCCO)=C(C)C1=O [IDEBENONE]	Compound NOT metabolized
CCCN(CCC)CCc1cccc2c1CC(=O)N2 [ROPINIROLE]	Compound NOT metabolized
CC(=O)OCC(CCn1cnc2cnc(N)nc21)COC(C)=O [FAMCICLOVIR]	Compound metabolized
CN(C)C(=O)Oc1cc(OC(=O)N(C)C)cc(C(O)CNC(C)(C)C)c1 (centres undefined) [BAMBUTEROL]	Compound NOT metabolized

Query :: What does the record list as Bacterial Biotransformation for COc1ccccc1OCCNCC(O)COc1cccc2[nH]c3ccccc3c12 (centres undefined) [CARVEDILOL] ?
Result :: Compound NOT metabolized

Query :: Param item: CCOc1ccc2nc(S(N)(=O)=O)sc2c1 [ETHOXZOLAMIDE]
Result :: Compound NOT metabolized

Query :: Param item: CC(=O)SCC(Cc1ccccc1)C(=O)NCC(=O)OCc1ccccc1 (centres undefined) [RACECADOTRIL]
Result :: Compound metabolized

Query :: Param item: COc1cc2nc(N3CCN(C(=O)C4CCCO4)CC3)nc(N)c2cc1OC (centres undefined) [TERAZOSIN]
Result :: Compound NOT metabolized

Query :: Param item: CN1C[C@H](C(=O)N[C@]2(C)O[C@@]3(O)[C@@H]4CCCN4C(=O)[C@H](Cc4ccccc4)N3C2=O)C[C@@H]2c3cccc4[nH]cc(c34)C[C@H]21.CS(=O)(=O)O [DIHYDROERGOTAMINE MESYLATE]
Result :: Compound metabolized

Query :: Param item: Br.COc1ccc2c(c1)[C@]13CCCC[C@@H]1[C@H](C2)N(C)CC3.O [DEXTROMETHORPHAN HYDROBROMIDE]
Result :: Compound NOT metabolized

Query :: Param item: CN1CCC[C@@H]1CCO[C@](C)(c1ccccc1)c1ccc(Cl)cc1.O=C(O)/C=C/C(=O)O [CLEMASTINE FUMARATE]
Result :: Compound NOT metabolized

Query :: Param item: CN1[C@@H]2CC[C@H]1C[C@@H](OC(=O)[C@H](CO)c1ccccc1)C2 [HYOSCYAMINE]
Result :: Compound NOT metabolized

Query :: Param item: CCN(CC)CCNC(=O)c1ccc(NC(C)=O)cc1 [ACECAINIDE]
Result :: Compound NOT metabolized

Query :: Param item: Cc1cc2c(s1)Nc1ccccc1N=C2N1CCN(C)CC1 [OLANZAPINE]
Result :: Compound NOT metabolized

Query :: Param item: CCOc1ccccc1OCCN[C@H](C)Cc1ccc(OC)c(S(N)(=O)=O)c1.Cl [TAMSULOSIN HYDROCHLORIDE]
Result :: Compound NOT metabolized

Query :: Param item: CC1Cc2ccccc2N1NC(=O)c1ccc(Cl)c(S(N)(=O)=O)c1 (centres undefined) [INDAPAMIDE]
Result :: Compound NOT metabolized

Query :: Param item: C[C@H]1C[C@H]2[C@@H]3CCC4=CC(=O)C=C[C@]4(C)[C@@]3(F)[C@@H](O)C[C@]2(C)[C@@]1(O)C(=O)CO [BETAMETHASONE]
Result :: Compound metabolized

Query :: Param item: CCN(C)C(=O)Oc1cccc([C@H](C)N(C)C)c1.O=C(O)C(O)C(O)C(=O)O [RIVASTIGMINE TARTRATE]
Result :: Compound NOT metabolized

Query :: Param item: CCc1oc2ccccc2c1C(=O)c1cc(Br)c(O)c(Br)c1 [BENZBROMARONE]
Result :: Compound NOT metabolized

Query :: Param item: CN1CCN(CCCN2c3ccccc3Sc3ccc(Cl)cc32)CC1.O=S(=O)(O)CCS(=O)(=O)O [PROCHLORPERAZINE EDISYLATE]
Result :: Compound metabolized

Query :: Param item: CC#C[C@]1(O)CC[C@H]2[C@@H]3CCC4=CC(=O)CCC4=C3[C@@H](c3ccc(N(C)C)cc3)C[C@@]21C [MIFEPRISTONE]
Result :: Compound NOT metabolized

Query :: Param item: CCN(CC)C(=O)C1(c2ccccc2)CC1CN (centres undefined)
Result :: Compound NOT metabolized

Query :: Param item: COc1ccc(CN2CCNCC2)c(OC)c1OC.Cl.Cl [TRIMETAZIDINE DIHYDROCHLORIDE]
Result :: Compound NOT metabolized

Query :: Param item: COc1ccc2c(c1)c(CC(=O)O)c(C)n2C(=O)c1ccc(Cl)cc1 [INDOMETHACIN]
Result :: Compound NOT metabolized

Query :: Param item: CCCN1C[C@H](CSC)C[C@@H]2c3cccc4[nH]cc(c34)C[C@H]21.CS(=O)(=O)O [PERGOLIDE MESYLATE]
Result :: Compound NOT metabolized

Query :: Param item: CN[C@H]1CC[C@@H](c2ccc(Cl)c(Cl)c2)c2ccccc21 [SERTRALINE]
Result :: Compound metabolized

Provenance of the data: ChEMBL document CHEMBL5724914
